Data provenance: ChEMBL document CHEMBL5230131

- tgt: Urea transporter 1 (Rattus norvegicus)
- Sequence (P97689 whole entry): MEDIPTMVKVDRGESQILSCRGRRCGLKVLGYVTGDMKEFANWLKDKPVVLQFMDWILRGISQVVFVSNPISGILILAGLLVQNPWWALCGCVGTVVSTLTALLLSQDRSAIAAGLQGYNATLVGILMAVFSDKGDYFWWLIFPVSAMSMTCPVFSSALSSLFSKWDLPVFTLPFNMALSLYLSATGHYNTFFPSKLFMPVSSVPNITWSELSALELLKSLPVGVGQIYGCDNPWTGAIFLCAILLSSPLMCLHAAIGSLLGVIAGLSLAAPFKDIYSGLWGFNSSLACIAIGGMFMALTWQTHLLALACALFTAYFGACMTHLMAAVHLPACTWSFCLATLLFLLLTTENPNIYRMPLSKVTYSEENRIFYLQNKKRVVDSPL
- methodNotes: Inhibition of UT-B in Sprague-Dawley rat erythrocyte incubated for 6 min by erythrocyte osmotic lysis based high-throughput screening assay
- Type: cell-based
pIC50: −log10 of the molar value.
quantityName: pIC50

compound	quantityName	measValue
CCOC(=O)c1cc2c(N)c(C(=O)OC)sc2cc1C	pIC50	6.33

a: CCN(Cc1ccccc1)C(c1cc2c(C)cc(C)cc2[nH]c1=O)c1nncn1CC1CCCO1 (centres undefined)
b: Cc1nc2ccc(NC(=O)c3ccco3)cc2c(=O)n1Cc1ccc(Cl)cc1
-- ask Which value of pIC50 is smaller, the one for a or the one for b ? Answer format: the label of the selected item.
-- reply b
(b: 5.25, a: 6.70)

###

- tgt: Urea transporter 1 (Mus musculus, UniProt Q8VHL0)
- Sequence (Q8VHL0 whole entry): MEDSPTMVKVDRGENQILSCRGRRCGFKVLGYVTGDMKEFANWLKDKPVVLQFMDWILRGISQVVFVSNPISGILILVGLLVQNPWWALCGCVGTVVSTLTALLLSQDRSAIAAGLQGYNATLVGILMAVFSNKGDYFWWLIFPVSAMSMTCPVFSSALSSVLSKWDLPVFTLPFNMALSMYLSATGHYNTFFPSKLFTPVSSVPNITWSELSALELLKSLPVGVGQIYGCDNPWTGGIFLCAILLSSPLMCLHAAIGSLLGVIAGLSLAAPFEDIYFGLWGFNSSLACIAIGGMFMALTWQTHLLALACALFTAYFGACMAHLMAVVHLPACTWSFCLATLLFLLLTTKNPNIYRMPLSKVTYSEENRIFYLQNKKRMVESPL
- methodNotes: Inhibition of UT-B in mouse erythrocyte incubated for 10 mins by stopped-flow light scattering assay
- Type: cell-based
quantityName: pIC50
Scale for pIC50: -log10 of concentration given in mol/L; no unit attached.

Quick note, pIC50 for COc1ccc(Nc2nnc(-c3ccc(C)c(S(C)(=O)=O)c3)c3ccccc23)cc1 landed at 6.16

###

- tgt: Pendrin (Mus musculus, UniProt Q9R155)
- Sequence (Q9R155 whole entry): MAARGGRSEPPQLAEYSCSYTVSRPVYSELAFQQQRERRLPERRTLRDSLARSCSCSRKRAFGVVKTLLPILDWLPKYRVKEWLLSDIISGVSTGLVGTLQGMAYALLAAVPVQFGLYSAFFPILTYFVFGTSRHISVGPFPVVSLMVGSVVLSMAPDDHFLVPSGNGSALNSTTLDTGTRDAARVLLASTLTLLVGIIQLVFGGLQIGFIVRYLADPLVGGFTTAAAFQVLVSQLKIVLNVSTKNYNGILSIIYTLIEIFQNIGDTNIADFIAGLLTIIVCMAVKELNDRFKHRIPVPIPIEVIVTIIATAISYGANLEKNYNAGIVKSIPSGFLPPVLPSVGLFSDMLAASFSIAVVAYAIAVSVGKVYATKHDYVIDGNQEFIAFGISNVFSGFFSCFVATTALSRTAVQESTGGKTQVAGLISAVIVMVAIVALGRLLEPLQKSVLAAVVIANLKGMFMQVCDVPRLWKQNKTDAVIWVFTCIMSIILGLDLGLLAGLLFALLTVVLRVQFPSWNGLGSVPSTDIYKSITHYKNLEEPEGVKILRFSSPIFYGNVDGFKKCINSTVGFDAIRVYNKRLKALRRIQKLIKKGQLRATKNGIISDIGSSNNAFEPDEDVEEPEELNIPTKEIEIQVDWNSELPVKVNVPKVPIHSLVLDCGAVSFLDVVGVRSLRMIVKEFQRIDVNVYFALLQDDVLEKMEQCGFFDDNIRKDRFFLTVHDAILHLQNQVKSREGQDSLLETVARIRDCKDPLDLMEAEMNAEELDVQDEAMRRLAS
- methodNotes: Inhibition of mouse Pendrin stably expressed in FRT cells with YFP assessed as inhibition of pendrin mediated Cl-/NO3- exchange by fluorescence assay
- Assay type: cell-based
quantityName: IC50 (µM)
Reply numerically in µM, unit not repeated.

Quick note, IC50 for Cc1n[nH]c(-c2cc(S(=O)(=O)NC3CCCc4ccccc43)c(C)s2)c1C (stereo unspecified) landed at 5
